Reference for the values: patent US20230374038A1

Target: UniProtKB P13569
Assay: Membrane Potential Dye, Enteroid Assay B
Format: cell-based
Conditions: read-out: Ent. B EC50
Please provide measured EC50 for the entries that follow.

Query: // lookup EC50 for "CCc1c2nc(nc1-c1c(C)cccc1C)NS(=O)(=O)c1cccc(c1)C(=O)N[C@@H]1CN(C3CC4(CCCCC4)C3)C[C@H]1O2"
Response: < 1000 nM

Query: // lookup EC50 for "Cc1cccc(C)c1-c1nc2nc(c1-c1ccccc1)O[C@H](C)CNC(=O)c1cccc(c1)S(=O)(=O)N2"
Response: < 1000 nM

Query: // lookup EC50 for Cc1cccc(C)c1-c1nc2nc(c1C)OC[C@@H](CC(C)(C)C)N(C1CC3(CC(NC(=O)OC(C)(C)C)C3)C1)C(=O)c1cccc(c1)S(=O)(=O)N2 (single isomer, unassigned) [Compound 59]
Response: < 1000 nM

Query: // lookup EC50 for Cc1cccc(C)c1-c1nc2nc(c1C)OC[C@@H](CC(C)C)N([C@H]1C[C@@]3(C[C@H](N(C)C)C3)C1)C(=O)c1cccc(c1)S(=O)(=O)N2 (single isomer, unassigned) [Compound 54]
Response: < 1000 nM

Query: // lookup EC50 for "CCc1c2nc(nc1-c1c(C)cccc1C)NS(=O)(=O)c1cccc(c1)C(=O)N(C1CC3(CCN(C(=O)OC(C)(C)C)CC3)C1)[C@H](CC(C)C)CO2"
Response: < 1000 nM

Query: // lookup EC50 for "Cc1cccc(C)c1-c1nc2nc(c1-c1ccccc1)OC[C@@H](C)NC(=O)c1cccc(c1)S(=O)(=O)N2"
Response: < 1000 nM

Query: // lookup EC50 for "Cc1cccc(C)c1-c1nc2nc(c1C)O[C@H](C)CNC(=O)c1cccc(c1)S(=O)(=O)N2"
Response: 1000 to 3000 nM

Query: // lookup EC50 for Cc1cccc(C)c1-c1nc2nc(c1C)O[C@H](C)CN(C1CC3(CC(NC(=O)OC(C)(C)C)C3)C1)C(=O)c1cccc(c1)S(=O)(=O)N2 (some centres unmarked)
Response: < 1000 nM

Query: // lookup EC50 for Cc1cccc(C)c1-c1nc2nc(c1C)OC[C@@H](CC(C)C)N([C@H]1C[C@@H](OC(C)C)C1)C(=O)c1cccc(c1)S(=O)(=O)N2 (single isomer, unassigned) [Compound 48]
Response: < 1000 nM

Query: // lookup EC50 for "Cc1cccc(C)c1-c1nc2nc(c1C)OC[C@@H](CCC(C)(C)O)N(Cc1ccc(C(C)(C)O)cc1)C(=O)c1cccc(c1)S(=O)(=O)N2"
Response: 1000 to 3000 nM

Query: // lookup EC50 for Cc1cccc(C)c1-c1nc2nc(c1C)OC[C@@H](CC(C)(C)C)N(C1CC3(CC(NC(=O)OC(C)(C)C)C3)C1)C(=O)c1cccc(c1)S(=O)(=O)N2 (single isomer, unassigned) [Compound 60]
Response: < 1000 nM

====

Target: CFTR (Homo sapiens, UniProt P13569, DEL508-508)
Construct: endogenous in cells; host or cells: primary human bronchial epithelial cells, F508del/MF genotype
Sequence (P13569 with tags, fused parts or gaps DEL508-508): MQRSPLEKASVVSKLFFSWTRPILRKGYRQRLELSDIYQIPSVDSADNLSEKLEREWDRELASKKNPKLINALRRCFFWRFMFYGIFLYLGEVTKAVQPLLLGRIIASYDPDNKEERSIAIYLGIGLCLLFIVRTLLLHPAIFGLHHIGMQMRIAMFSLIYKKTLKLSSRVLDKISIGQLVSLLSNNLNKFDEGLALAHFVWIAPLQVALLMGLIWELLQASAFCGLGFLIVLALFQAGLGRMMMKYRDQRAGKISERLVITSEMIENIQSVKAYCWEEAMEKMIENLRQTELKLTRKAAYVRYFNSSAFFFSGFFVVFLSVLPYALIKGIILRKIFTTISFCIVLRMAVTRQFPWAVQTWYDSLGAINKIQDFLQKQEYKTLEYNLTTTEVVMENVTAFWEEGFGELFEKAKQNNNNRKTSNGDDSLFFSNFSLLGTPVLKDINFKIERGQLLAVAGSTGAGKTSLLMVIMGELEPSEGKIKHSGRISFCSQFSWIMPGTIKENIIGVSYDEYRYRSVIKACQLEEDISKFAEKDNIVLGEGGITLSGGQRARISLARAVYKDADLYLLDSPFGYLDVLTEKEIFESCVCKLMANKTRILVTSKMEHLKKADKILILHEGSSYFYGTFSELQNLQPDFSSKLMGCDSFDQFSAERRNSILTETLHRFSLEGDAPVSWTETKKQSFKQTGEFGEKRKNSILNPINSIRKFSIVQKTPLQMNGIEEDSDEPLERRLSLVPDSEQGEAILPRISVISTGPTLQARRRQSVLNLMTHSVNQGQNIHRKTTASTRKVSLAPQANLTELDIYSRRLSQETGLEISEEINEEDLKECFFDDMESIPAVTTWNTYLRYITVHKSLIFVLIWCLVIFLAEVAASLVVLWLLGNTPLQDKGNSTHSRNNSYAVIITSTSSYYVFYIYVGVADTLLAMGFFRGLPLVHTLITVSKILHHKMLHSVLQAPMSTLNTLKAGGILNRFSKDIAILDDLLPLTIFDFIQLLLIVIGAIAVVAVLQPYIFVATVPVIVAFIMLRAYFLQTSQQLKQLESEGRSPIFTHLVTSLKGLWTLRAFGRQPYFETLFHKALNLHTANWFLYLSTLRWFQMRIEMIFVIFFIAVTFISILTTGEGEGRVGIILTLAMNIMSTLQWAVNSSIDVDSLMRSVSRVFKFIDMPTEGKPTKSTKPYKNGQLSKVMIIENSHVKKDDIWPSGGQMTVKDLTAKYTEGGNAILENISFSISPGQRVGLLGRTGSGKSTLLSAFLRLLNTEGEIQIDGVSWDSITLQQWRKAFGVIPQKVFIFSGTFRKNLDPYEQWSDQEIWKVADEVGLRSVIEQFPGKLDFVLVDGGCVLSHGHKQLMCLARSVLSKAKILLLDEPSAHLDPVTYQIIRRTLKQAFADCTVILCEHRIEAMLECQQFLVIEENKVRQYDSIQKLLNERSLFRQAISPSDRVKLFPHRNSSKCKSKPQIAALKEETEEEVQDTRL
Test: HBE Assay: Ussing chamber assay of CFTR-mediated short-circuit currents in F508del/MF-HBE cells with 1 μM Ivacaftor
Format: cell-based
Details: single fixed concentration of 10 μM, with 1 μM Ivacaftor, 20% human serum
Procedure: Ussing chamber experiments were performed using human bronchial epithelial (HBE) cells derived from CF subjects heterozygous for F508del and a minimal function CFTR mutation (F508del/MF-HBE) and cultured as previously described (Neuberger T, Burton B, Clark H, Van Goor F Methods Mol Biol 2011:741:39-54). […] The activity of the CFTR corrector compounds on the CFTR-mediated ISC was determined in Ussing chamber studies as described above. […]
experimentalEndpoint: HBE Activity at 10 μM

molecule	testedTarget	endpointValue
Cc1cccc(CC2CCOCC2)c1-c1nc2nc(c1C)OC[C@@H](CC(C)(C)C)N(Cc1ccc(N3CCOCC3)cn1)C(=O)c1cccc(c1)S(=O)(=O)N2 (atropisomer, axis not shown) [Compound 274]	CFTR (Homo sapiens, UniProt P13569, DEL508-508)	++ (++ is 30-60%)
Cc1cccc(CC2CCCC2)c1-c1nc2nc(c1C)OC[C@@H](CC(C)(C)C)N(Cc1cccc(N3CCC[C@H]3C)n1)C(=O)c1cccc(c1)S(=O)(=O)N2 (atropisomer, axis not shown)	CFTR (Homo sapiens, UniProt P13569, DEL508-508)	+++ (+++ is >600%)
Cc1cccc(CC2CCCC2)c1-c1nc2nc(c1C)OC[C@@H](CC(C)(C)C)N(Cc1ncc(N3CCC(C)(C)C3)cn1)C(=O)c1cccc(c1)S(=O)(=O)N2 (atropisomer, axis not shown)	CFTR (Homo sapiens, UniProt P13569, DEL508-508)	+++ (+++ is >600%)
Cc1cccc(CC(C)C)c1-c1nc2nc(c1C(F)(F)F)OC[C@@H](CC(C)(C)C)N(Cc1ccc(N3CCOCC3)cn1)C(=O)c1cccc(c1)S(=O)(=O)N2 (atropisomer, axis not shown)	CFTR (Homo sapiens, UniProt P13569, DEL508-508)	++ (++ is 30-60%)
Cc1cccc(C(C)C)c1-c1nc2nc(c1C)OC[C@@H](CC(C)(C)C)N(Cc1cnc(C3CCOCC3)cn1)C(=O)c1cccc(c1)S(=O)(=O)N2 (atropisomer, axis not shown) [Compound 318]	CFTR (Homo sapiens, UniProt P13569, DEL508-508)	+++ (+++ is >600%)

Query: // lookup HBE Activity at 10 μM for Cc1cccc(COC(C)C)c1-c1nc2nc(c1C)OC[C@@H](CC(C)(C)C)N(Cc1nccc(N(C)C(C)C)n1)C(=O)c1cccc(c1)S(=O)(=O)N2 (atropisomer, axis not shown) [Compound 230]
Response: +++ (+++ is >600%)

Query: // lookup HBE Activity at 10 μM for Cc1cccc(COC(C)C)c1-c1nc2nc(c1C)OC[C@@H](CC(C)(C)C)N(Cc1nccc(N(C)C(C)C)n1)C(=O)c1cccc(c1)S(=O)(=O)N2 (atropisomer, axis not shown) [Compound 229]
Response: +++ (+++ is >600%)

Query: // lookup HBE Activity at 10 μM for Cc1cccc(CC(C)(C)C)c1-c1nc2nc(c1C)OC[C@@H](CC(C)(C)C)N(Cc1ncc(N3CCC(C)(C)C3)cn1)C(=O)c1cccc(c1)S(=O)(=O)N2 (atropisomer, axis not shown; (M))
Response: ++ (++ is 30-60%)

Query: // lookup HBE Activity at 10 μM for Cc1cccc(CC(C)C)c1-c1nc2nc(c1C(F)(F)F)OC[C@@H](CC(C)(C)C)N(Cc1ncc(N3CCOCC3)cn1)C(=O)c1cccc(c1)S(=O)(=O)N2 (single isomer, unassigned)
Response: +++ (+++ is >600%)

====

Please provide measured EC50 for the entries that follow.
Biological target: CFTR (Homo sapiens)
Test: Membrane Potential Dye, Enteroid Assay B
Assay type: cell-based
Conditions: read-out: Ent. B EC50

Query: // lookup EC50 for "Cc1cccc(C)c1-c1nc2nc(c1CN(C)C)OC[C@@H](CC(C)C)N(C1CC3(CC3)C1)C(=O)c1cccc(c1)S(=O)(=O)N2"
Response: < 1 µM

Query: // lookup EC50 for Cc1cccc(C)c1-c1nc2nc(c1C)OC[C@@H](CC1(C(F)(F)F)CC1)N(C1CC3(CC(N(C)C)C3)C1)C(=O)c1cccc(c1)S(=O)(=O)N2 (stereo in doubt) [Compound 91]
Response: < 1 µM

Query: // lookup EC50 for Cc1cccc(C)c1-c1nc2nc(c1C)OC(c1ccc(CC3(C(F)(F)F)CC3)cn1)CN(C)C(=O)c1cccc(c1)S(=O)(=O)N2 (stereo not drawn) [Compound 204]
Response: < 1 µM

====

Biological target: CFTR (Homo sapiens, UniProt P13569)
Sequence (P13569 with tags, fused parts or gaps DEL508-508): as above
Experiment: Membrane Potential Dye, Enteroid Assay A
Format: cell-based
experimentalEndpoint: Ent. A Max Activity

compound	testedTarget	Ent. A Max Activity
CCc1c2nc(nc1-c1ccccc1C(C)C)NS(=O)(=O)c1cccc(c1)NC(=O)c1cccc(c1C)O2 [Compound 15]	CFTR (Homo sapiens, UniProt P13569)	+++ (+++ is >60%)
Cc1cccc(C)c1-c1nc2nc(c1OC(C)C)OC[C@@H](CC(C)C)NC(=O)c1cccc(c1)S(=O)(=O)N2 [Compound 165]	CFTR (Homo sapiens, UniProt P13569)	+++ (+++ is >60%)
Cc1ncccc1-c1nc2nc(c1C(F)(F)F)OC1CN(Cc3ccccc31)C(=O)c1cccc(c1)S(=O)(=O)N2 (stereo not shown) [Compound 40]	CFTR (Homo sapiens, UniProt P13569)	+ (+ is <30%)
Cc1cccc(C)c1-c1nc2nc(c1OC(C)C)OC[C@@H](CC(C)C)N(C1CC3(CCN(C(=O)OC(C)(C)C)CC3)C1)C(=O)c1cccc(c1)S(=O)(=O)N2 [Compound 177]	CFTR (Homo sapiens, UniProt P13569)	+++ (+++ is >60%)
CCc1c2nc(nc1-c1ccccc1OCC(C)C)NS(=O)(=O)c1cccc(c1)NC(=O)c1cccc(c1)O2 [Compound 26]	CFTR (Homo sapiens, UniProt P13569)	+ (+ is <30%)
CC(C)(C)c1c2nc(nc1-c1ccccc1)NS(=O)(=O)c1cccc(c1)C(=O)N1Cc3ccccc3C(C1)O2 (stereo not shown) [Compound 46]	CFTR (Homo sapiens, UniProt P13569)	+ (+ is <30%)

Kindly consider the entry below.
Query: // lookup Ent. A Max Activity for CCc1c2nc(nc1-c1cccnc1OC)NS(=O)(=O)c1cccc(c1)NC(=O)c1cccc(c1)O2 [Compound 20]
Response: + (+ is <30%)
